- Test description: Primary qHTS for small molecule stabilizers of the endoplasmic reticulum resident proteome: Secreted ER Calcium Modulated Protein (SERCaMP) assay (AID 1508630)
- Condition context: SH-SY5Y GLuc-SERCaMP (Gaussia luciferase released on ER calcium loss) secretion, thapsigargin, luminescence; series mostly up to 38.4 µM
Results filed as inconclusive are left out. The source made the active and inactive calls. The call rests on the fitted dose curve; in most records, active means well fitted inhibition curve with a large enough effect; inconclusive means small, poorly fitted or top-dose-only effect; inactive means no such curve, though single readings can be large or run the other way.
Please answer using one outcome listed in active, inactive

Study these solved cases before continuing.
1) N#CC(C#N)=C(N)/C(C#N)=C/c1ccc(O)cc1: inactive
2) C[C@H](O)C(=O)C1=Nc2c(nc(N)[nH]c2=O)NC1: inactive
3) CCCOC(=O)c1c(-c2ccccc2)nc(CC)c(C(=O)SCC)c1CCC: inactive

*Q* For this molecule, state the assay outcome: OC1(c2ccc(Cl)cc2)CCN(Cc2c[nH]c3ccccc23)CC1
*A* inactive

*Q* In this assay, the call recorded for CC(C)(C)NCC(O)COc1cccc2[nH]c(=O)[nH]c12 (configuration not stated) was what?
*A* inactive

*Q* How did this test come out for CCC(=O)N1CCN(C(=O)c2ccccc2)CC1 ?
*A* inactive

*Q* Identify the outcome logged in this assay for the molecule shown: Cn1cc(C(=O)OCC2CCN(CCNS(C)(=O)=O)CC2)c2ccccc21
*A* inactive

*Q* Could you please tell me the result logged for CC(N)(Cc1ccc(O)cc1)C(=O)O (configuration not stated) in this assay?
*A* inactive

====

- Target of assay: N-terminal Xaa-Pro-Lys N-methyltransferase 1 (Homo sapiens) (UniProt Q9BV86)
- Sequence (Q9BV86 whole entry, looked up): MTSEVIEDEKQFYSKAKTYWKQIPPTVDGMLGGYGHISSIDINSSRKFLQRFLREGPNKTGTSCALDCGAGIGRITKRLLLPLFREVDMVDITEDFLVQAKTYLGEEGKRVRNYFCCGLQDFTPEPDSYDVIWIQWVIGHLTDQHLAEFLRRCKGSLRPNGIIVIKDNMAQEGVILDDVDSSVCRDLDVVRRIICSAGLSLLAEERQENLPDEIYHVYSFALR
- Test description: qHTS Assay for Inhibitors of N-terminal methyltransferase 1 (NTMT1): LOPAC validation of the NTMT1 SAHH-coupled ThioGlo3 Assay (AID 1347143);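 further: SAH from peptide methylation measured as thiol fluorescence via SAHH coupling and ThioGlo3; nearly all actives have a fitted effect of over 70% in size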; further: potency means the concentration at half of the fitted maximal effect
- Condition context: recombinant NTMT1, SAHH-coupled ThioGlo3 fluorescence; series mostly up to 114 µM
- Description: Assay Submitter (PI): Rong Huang Ph.D, Purdue University, West Lafayette, IN 47907 The N-terminal methytransferase 1 is the first methyltransferase that methylates protein alpha-N-amines and plays an important role in regulating cell mitosis, chromatin interactions and DNA repair. […] To address this unmet need, a panel of assay is created and established to enable quantitative high-throughput screening (qHTS) for novel, potent, and selective small molecule NTMT1 inhibitors. […]
Records with an inconclusive call do not appear. Active and inactive are the calls of the source. Calls come from the whole dose curve; as a rule, active = well fitted inhibition curve with a large enough effect; inconclusive = small, poorly fitted or top-dose-only effect; inactive = no such curve, though single readings can be large or run the other way. Residues, ends and D or L forms follow the SMILES beside them. *: point of attachment. Cbz = O=C(OCc1ccccc1)*
Endpoint: Potency

Look over these answered cases.
1) NC/C=C\C(=O)O: inactive
2) N[C@H](C(=O)O)c1cc(O)cc(O)c1: inactive
3) N[C@@H](CS(=O)O)C(=O)O: inactive
4) C[C@@]1(C2CCCC2)Cc2cc(OCC(=O)O)c(Cl)c(Cl)c2C1=O: inactive
5) O=C(O)c1cccnc1C(=O)O: inactive
6) C#CC(N)CCC(=O)O (stereo unspecified): inactive

*Q* Give a short answer stating reported Potency for CC(O)C(O)[C@H]1CNc2nc(N)[nH]c(=O)c2N1 (stereo partly specified) .
*A* 28.2 µM (active)

*Q* Let me know recorded Potency for N[C@@H](CCCC(=O)O)C(=O)O , thanks.
*A* inactive

*Q* Please give the documented Potency of C[C@H]1CC2C3CCC4=CC(=O)C=C[C@]4(C)[C@@]3(Cl)[C@@H](O)C[C@]2(C)[C@@]1(O)C(=O)CO (stereo partly specified)
*A* inactive

*Q* Fill in Potency for record COc1cc2c(CCNC(C)=O)c[nH]c2cc1O
*A* inactive

*Q* Give the measured Potency for CC(C)[C@H](NC(=O)OCc1ccccc1)C(=O)N[C@H](C=O)Cc1ccccc1 (Cbz-Val-Phe-aldehyde)
*A* inactive
